test system: HCT116; experiment: efficacy (fitted maximal change in viability relative to DMSO control); higher = less cytotoxic (negative = loss of viability); conditions: 48 h
QUANTITY_NAME: efficacy (%)

> print(dat)
                               query.smiles  value.reported
1  OC1=CC=C2\C3=C(CNCC3)/C(=O)OC2=C1C4OCCCO4            9.24
2  CC1=CC/2=C(C=C1C)N(C[C@@H](O)[C@@H](O)[C@@H](O)CO)C/3=N/C(=O)NC(=O)C3=N2            -9.8
3  CCN1C(=O)\C(=C/C2=CN=C(NCCC3CCN(C)CC3)N=C12)C4=CC=C(C=C4Cl)C5=CN=CC(=N5)C           -62.9
4  Cc1ccc(C(=O)Nc2cccc(C(F)(F)F)c2)cc1Nc1nc(-c2cccnc2)nc2c1cnn2C            -103

* * *

tested on: HCT116; assay: efficacy (fitted maximal change in viability relative to DMSO control); higher = less cytotoxic (negative = loss of viability); conditions: 48 h

MOLECULE	MEASUREMENT_UNITS	efficacy
CO[C@H]1C[C@@H]2CC[C@@H](C)[C@@](O)(O2)C(=O)C(=O)N2CCCC[C@H]2C(=O)O[C@H]([C@H](C)C[C@@H]2CC[C@@H](OCCO)[C@H](OC)C2)CC(=O)[C@H](C)/C=C(/C)[C@@H](O)[C@@H](OC)C(=O)[C@H](C)C[C@H](C)\C=C/C=C\C=C/1C	%	-57.4
N/C(=N\OCC(O)CN1CCCCC1)c1cccnc1 (configuration not stated)	%	-14.5
CCCOc1ccc(CCc2nc3cc(-c4c(C)noc4C)ccc3n2CCN2CCOCC2)cc1	%	-94.5
N#Cc1ccc(-c2c(-c3nnc[nH]3)sc(N3CCOCC3)c2C#N)c(F)c1	%	-83.5
COc1cc(Nc2c(C#N)cnc3cc(OCCCN4CCN(C)CC4)c(OC)cc23)c(Cl)cc1Cl	%	-93.7
CNC(=O)c1ccc2cc(C3(O)CCn4cncc43)ccc2c1 (configuration not stated)	%	-5.91
CN(C)CCNC(=O)COc1c2cccc1Cc1cccc(c1OCC(=O)NCCN(C)C)Cc1cccc(c1OCC(=O)NCCN(C)C)Cc1cccc(c1OCC(=O)NCCN(C)C)C2	%	-46.7

* * *

test system: HCT116; assay: efficacy (fitted maximal change in viability relative to DMSO control); higher = less cytotoxic (negative = loss of viability); conditions: 48 h
Class definitions on efficacy: low: < -90%; intermediate: ≥ -90% and < -60%; high: ≥ -60%

MOLECULE	QUALITATIVE_LABEL
Cc1cnc(-c2cc(N3CCN(C(=O)CC[S+](C)(=O)[O-])CC3)ncc2Cl)c(C)c1	low
C[C@H]1C[C@H]2[C@@H]3CC[C@](O)(C(=O)CO)[C@@]3(C)C[C@H](O)[C@@H]2[C@@]\4(C)/C=C\C(=O)\C=C14 [Methylprednisolone]	high
CN(C)[S+](=O)([O-])c1ccc2c(c1)C(=Cc1cc3c([nH]1)CCCC3)C(=O)N2 [SU-6656]	high
Cc1cn(CCN2CCN(c3ccccc3-c3cc(C#N)cc(C(=O)NCCCN4CCCC4)c3)CC2)c2ccccc12 [LLY-507]	low
CN(C)c1ccc(Nc2nc(N)n(C(=O)c3c(F)cccc3F)n2)cc1	low
C[S+](=O)([O-])N1CCN(Cc2cc3nc(-c4cccc5[nH]ncc45)nc(N4CCOCC4)c3s2)CC1 [Pictilisib]	intermediate
C[C@H]([C@H]1C\C(=C(CO)/C(=O)O1)C)[C@H]2CC[C@H]3[C@@H]4C[C@H]5O[C@]56[C@@H](O)\C=C/C(=O)[C@]6(C)[C@H]4CC[C@]23C [Withaferin A]	low
CC(C)n1ncnc1-c1cn2c(n1)-c1ccc(O[C@@H](C)C(N)=O)cc1OCC2 [GDC-0326]	intermediate
O=C(O)c1ccccc1-c1ccc(/C=c2\sc3nc4cc(Br)cnc4n3c2=O)o1 [ML-119]	high
F\C1=C\NC(=O)NC1=O [Fluorouracil]	intermediate
Cc1cc(C(=O)N2CCN(c3cccc(Cl)c3)CC2)n(-c2ccccc2)n1 [XRP-44X]	intermediate
CN(C)c1ccc(C(=O)NCCCCCCC(=O)NO)cc1 [M-344]	intermediate
COc1cc2nccc(Oc3ccc(NC(=O)C4(C(=O)Nc5ccc(F)cc5)CC4)cc3)c2cc1OC [Cabozantinib]	intermediate
CC(C)(C)C1=CC(=C(NC(=O)C/2=C/NC3=C(C=CC=C3)C2=O)C=C1O)C(C)(C)C [Ivacaftor]	low

* * *

tested on: HCT116; test: AC50 cell viability (CellTiter-Glo); higher = less potent; details: 48 h

COMPOUND	AC50 cell viability [µM]
Cc1cc(Nc2ncc(Cl)c(Nc3ccccc3[S+](=O)([O-])C(C)C)n2)c(OC(C)C)cc1C1CCNCC1 [Ceritinib]	13.2
CCCC1OC2C[C@H]3[C@@H]4CCC5=CC(=O)C=C[C@]5(C)[C@H]4C(O)C[C@]3(C)[C@]2(C(=O)CO)O1 (some centres not stated) [Budesonide]	18.6
CO[C@@H](C)Cn1c(=O)n(C)c2cnc3ccc(-c4cncc(C(C)(C)O)c4)cc3c21	1.05
N#C/N=C(\NCCCCCCOc1ccc(Cl)cc1)Nc1ccncc1 [GMX-1778]	0.0132
CN\1N(C(=O)\C(=C1C)C(=O)NC2=CC=C(OC3=CC=NC4=C3C(=C[NH]4)C5=CC=CC=C5)C(=C2)F)C6=CC=C(F)C=C6 [NPS-1034]	14.8
COc1cccc2c1C(=O)c1c(O)c3c(c(O)c1C2=O)C[C@@](O)(C(=O)CO)CC3OC1CC(N2CCOC(OC)C2)C(O)C(C)O1 (some centres not stated) [Nemorubicin]	0.0263
COc1cc2c(NC3CCN(C(C)C)CC3)nc(C3CCCCC3)nc2cc1OCCCN1CCCC1 [UNC-0638]	8.33

* * *

efficacy values for the compounds below.
tested on: HCT116; assay: efficacy (fitted maximal change in viability relative to DMSO control); higher = less cytotoxic (negative = loss of viability); details: 48 h
QUANTITY_NAME: efficacy (%)

> print(dat)
                                   compound  measurement.units  value.reported
1  Nc1nc(Cl)nc2c1ncn2[C@@H]1O[C@H](CO)[C@@H](O)[C@@H]1F                  %           -51.1
2  C[N]1C2=C(SC(=C2)[S+](C)[O-])C\3=C1C(=O)N(CC4=CC(=CC=C4)N)\N=C3 (stereo not given)                  %            21.5
3  Nc1n[nH]c2nnc(-c3c(-c4ccccc4)nn4ccccc34)cc12                  %           -41.3
4                C1C\N=C(\NC(C2CC2)C3CC3)O1                  %           -6.97
5  Nc1ccc(C(=O)c2cc3c(ccc4ccccc43)[nH]2)cc1                  %            -102

* * *

tested on: HCT116; assay: AC50 cell viability (CellTiter-Glo); higher = less potent; conditions: 48 h
QUANTITY_NAME: AC50 cell viability (µM)

> print(dat)
                                   compound        quantity.name  value.reported
1  CCNC(=O)C[C@@H]1\N=C(C2=CC=C(Cl)C=C2)/C3=C(C=CC(=C3)OC)[N]4C(=NN=C14)C [I-BET762]  AC50 cell viability            2.63
2  CCN1CCN(CC1)CC(=O)NC2=CC=C(C3=C2C4=C(S3)C=CC=C4)C5=C6O\C(=C/C(=O)C6=CC=C5)N7CCOCC7  AC50 cell viability            1.29
3  Cc1ccc(NC(=O)NCc2ccc3c(c2)CN(C2CCC(=O)NC2=O)C3=O)cc1Cl (stereo not drawn) [CC-885]  AC50 cell viability          0.0934
4  C[N]1C=C(C=N1)C2=C3\C=N/NC(=O)C4=C3C(=CC(=C4)NC(=O)[C@H](N)C5CCCCC5)[NH]2  AC50 cell viability            16.6
5  CN1C(=O)\C(=C/C(=C1/NC2=C(F)C=C(I)C=C2)C(=O)NOCCO)C [AZD-8330]  AC50 cell viability         0.00934
6  CCN1C(=O)\C(=C/C2=C(C)N=C(N)N=C12)C3=CC=N[NH]3 [Voxtalisib]  AC50 cell viability            5.25
7  O=C(c1ccc(Nc2nccc(-c3cc4ccccc4s3)n2)cc1)N1CCC(N2CCCC2)CC1 [IKK-16]  AC50 cell viability            6.61
8  CCc1ccc(N(CC(C)C)[S+](=O)([O-])c2ccc(OCC3CCOCC3)c(CO)c2)cc1  AC50 cell viability            23.5
